From: patent US20210388087A1

# TARGET_DESC: human CD3 ed (human, UniProt P07766 23-126; P04234 22-105, limits assumed)
# Sequence (P07766 23-126 limits assumed, chain 1 of 2): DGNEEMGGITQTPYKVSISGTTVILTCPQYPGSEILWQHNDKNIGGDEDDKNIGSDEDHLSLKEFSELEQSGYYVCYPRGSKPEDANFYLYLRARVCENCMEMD
# Sequence (P04234 22-105 limits assumed, chain 2 of 2): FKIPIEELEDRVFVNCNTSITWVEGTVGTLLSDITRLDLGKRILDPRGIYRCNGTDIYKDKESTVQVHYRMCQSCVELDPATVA
# PROTOCOL_TEXT: SPR Biacore T200, IgG captured on protein A, 25 C;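 note: antigens diluted in ACES running buffer at pH 7.4 were flowed over antibodies held on a CM3 chip bearing amine-coupled protein A, with buffer alone serving as blank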
pKd: −log10 of the molar value.
MEASUREMENT_TYPE: pKd

- dBBDu193/L132 (antibody, V domains shown, IgG format; constant regions not specified; also called dBBDu_193 dBBDu.L132) VH: QVQLVESGGGLVQPGRSLRLSCAASGFTFSNAWMHWVRQAPGKGLEWVAQIKDRSNQYATYYAPSVKGRFTISRDDSKNSIYLQMNSLKTEDTAVYYCHYVHYSAASTLLPSFGVDAWGQGTTVTVSS VL: DIVMTQSPLSLPVTPGEPASISCQTSEELVHINRFIFLHWYQQKPGQAPRLLIYKVSNRFSGVPDRFSGSGSGTDFTLKISRVEAEDVGVYYCAQGTSVPFTFGQGTKLEIK: 5.69
- dBBDu186/L106 (antibody, V domains shown, IgG format; constant regions not specified) VH: QVQLVESGGGLVQPGRSLRLSCAASGFTFSNAWMHWVRQAPGKGLEWVAQIKDRSNQYATYYAPSVKGRFTISRDDSKNSIYLQMNSLKTEDTAVYYCHYVHYAQASTVLPAFGVDAWGQGTTVTVSS VL: DIVMTQSPLSLPVTPGEPASISCSTSEELLHINRFIFLHWYQQKPGQAPRLLIYKVANRFMGVPDRFSGSGSGTDFTLKISRVEAEDVGVYYCAQGSQVPFTFGQGTKLEIK: 5.51
- dBBDu186/L100 (antibody, V domains shown, IgG format; constant regions not specified) VH: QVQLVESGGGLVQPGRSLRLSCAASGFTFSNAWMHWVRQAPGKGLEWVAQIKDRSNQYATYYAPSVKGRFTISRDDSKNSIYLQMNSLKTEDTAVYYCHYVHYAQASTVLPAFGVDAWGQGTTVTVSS VL: DIVMTQSPLSLPVTPGEPASISCSASEELVHINRYIFLHWYQQKPGQAPRLLIYKVYNRFMGVPDRFSGSGSGTDFTLKISRVEAEDVGVYYCGQGSSVPFTFGQGTKLEIK: 5.47
- dBBDu186/L098 (antibody, V domains shown, IgG format; constant regions not specified) VH: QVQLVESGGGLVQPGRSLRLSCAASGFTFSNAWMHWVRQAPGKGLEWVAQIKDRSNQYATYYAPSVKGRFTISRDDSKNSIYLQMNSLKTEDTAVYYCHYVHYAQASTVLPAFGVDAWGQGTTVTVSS VL: DIVMTQSPLSLPVTPGEPASISCAASEELVHINRYIFLHWYQQKPGQAPRLLIYKVSNRFIGVPDRFSGSGSGTDFTLKISRVEAEDVGVYYCAQGSQVPFTFGQGTKLEIK: 5.73
- dBBDu167/L094 (antibody, V domains shown, IgG format; constant regions not specified; also called dBBDu_167 dBBDu.L094) VH: QVQLVESGGGLVQPGRSLRLSCAASGFTFSNAWMHWVRQAPGKGLEWVAQIKDKGNLYAAYYAPSVKGRFTISRDDSKNSIYLQMNSLKTEDTAVYYCHYVHYASAGGGLPGFGVDAWGQGTTVTVSS VL: DIVMTQSPLSLPVTPGEPASISCYASEELLHINRHIYLHWYQQKPGQAPRLLIYKVYNRFNGVPDRFSGSGSGTDFTLKISRVEAEDVGVYYCAQGSSVPFTFGQGTKLEIK: 6.46
